# tested.target: Rsk2 (Homo sapiens, UniProt P51812, Y707A)
# Construct: His; made in house; host or cells: Sf9 (baculovirus, Bac-to-Bac)
# Sequence (P51812 whole entry Y707A): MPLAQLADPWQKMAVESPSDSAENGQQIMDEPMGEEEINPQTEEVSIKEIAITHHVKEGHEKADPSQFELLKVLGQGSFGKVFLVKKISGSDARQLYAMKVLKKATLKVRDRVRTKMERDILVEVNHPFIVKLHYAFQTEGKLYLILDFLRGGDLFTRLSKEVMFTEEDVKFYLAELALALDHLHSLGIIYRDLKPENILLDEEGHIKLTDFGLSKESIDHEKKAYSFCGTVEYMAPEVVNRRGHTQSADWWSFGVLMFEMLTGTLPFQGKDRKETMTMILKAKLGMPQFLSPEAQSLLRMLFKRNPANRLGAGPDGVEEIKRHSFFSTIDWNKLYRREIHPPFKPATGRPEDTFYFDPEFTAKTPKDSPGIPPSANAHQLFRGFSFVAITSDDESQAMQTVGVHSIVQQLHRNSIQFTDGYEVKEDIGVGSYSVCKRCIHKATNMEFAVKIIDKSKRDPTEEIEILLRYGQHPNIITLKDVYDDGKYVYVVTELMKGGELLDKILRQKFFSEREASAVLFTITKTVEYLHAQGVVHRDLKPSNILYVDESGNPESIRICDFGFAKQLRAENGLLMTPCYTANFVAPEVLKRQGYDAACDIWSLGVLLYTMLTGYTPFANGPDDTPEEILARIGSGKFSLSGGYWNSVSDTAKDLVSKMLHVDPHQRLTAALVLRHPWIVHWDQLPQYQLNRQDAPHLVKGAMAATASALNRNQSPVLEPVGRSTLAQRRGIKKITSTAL
# experiment.notes: Rsk kinase ELISA with immobilized substrate and phosphospecific antibodies
# Assay type: biochemical
# experimental.conditions: in vitro, increasing concentrations of compound; read-out: IC50 for Rsk catalytic activity
property: IC50 (nM)
Please respond with the number in nM and leave the unit unwritten.

{"columns": ["compound", "property", "readout.unit", "experimental.result"],
 "data": [
  ["CC(=O)OC1C(C)OC(Oc2c(-c3ccc(O)cc3)oc3cc(O)cc(O)c3c2=O)C(OC(C)=O)C1O (centres unmarked)", "IC50", "nM", 580]
]}

Input: # input compound: CC(=O)OC1C(C)OC(Oc2c(-c3ccc(O)cc3)oc3cc(O)cc(O)c3c2=O)C(O)C1O (centres unmarked) ; wanted: its IC50
Output: 190
